system: IGROV-1; assay: NCI tumour cell line growth inhibition, 48 h
Activity calls are given as the source filed them. Rule as the data show it: active = GI50 up to about 1.1 µM and inactive = higher.
Provide the recorded GI50 for the entries that follow.

Form: Entry = Cc1cccc(N2C(=O)C3c4[nH]c5ccc(C)cc5c4C4CCC(C(C)(C)C)CC4C3C2=O)c1 (stereo not given) | System = IGROV-1 | GI50 = ____ 26.5 µM (inactive)

Form: Entry = N#C[BH2-][n+]1cn(C2CC(O)C(COP(=O)(O)OC3CC(n4ccc(N)nc4=O)OC3CO)O2)c2nc(N)[nH]c(=O)c21 (stereo not given) | System = IGROV-1 | GI50 = ____ > 100 µM (inactive)

Form: Entry = CCOC(=O)c1cccn1S(=O)(=O)c1cc(Cl)ccc1NC(=O)CC | System = IGROV-1 | GI50 = ____ > 100 µM (inactive)

Form: Entry = C=CCn1cnc2c(O)nc(Nc3ccccc3)nc21 | System = IGROV-1 | GI50 = ____ > 100 µM (inactive)

Form: Entry = O=C(c1ccccn1)C1(N2CCCCC2)CCCCC1 | System = IGROV-1 | GI50 = ____ 87.7 µM (inactive)

Form: Entry = N#Cc1cc2c(cc1Cl)Sc1nccn1S2(=O)=O | System = IGROV-1 | GI50 = ____ 6.38 µM (inactive)

Form: Entry = Nc1nnc2nc(CC(=O)/C=C/c3ccccc3)c(=O)[nH]n12 | System = IGROV-1 | GI50 = ____ > 100 µM (inactive)

Form: Entry = C=C1CC[C@@H](C)[C@](C)(CCc2ccoc2)C/C=C\C=C/1C(=O)O | System = IGROV-1 | GI50 = ____ 51.4 µM (inactive)

Form: Entry = S=C1Cc2c([nH]c3ccccc23)-c2ccccc2N1 | System = IGROV-1 | GI50 = ____ 65.3 µM (inactive)

Form: Entry = Nc1ccc(S(=O)(=O)NCCS(=O)(=O)O)cc1 | System = IGROV-1 | GI50 = ____ > 100 µM (inactive)
